System Under Test: ΔCcMreBdh (Caulobacter vibrioides, UniProt A0A0H3C7V4, F102S/V103G)
Construct: added initiator Met (M before I9) (N); made in house; host or cells: E. coli C41(DE3) (printed for the sister construct ΔCcMreBh)
Sequence (A0A0H3C7V4 9-347 F102S/V103G): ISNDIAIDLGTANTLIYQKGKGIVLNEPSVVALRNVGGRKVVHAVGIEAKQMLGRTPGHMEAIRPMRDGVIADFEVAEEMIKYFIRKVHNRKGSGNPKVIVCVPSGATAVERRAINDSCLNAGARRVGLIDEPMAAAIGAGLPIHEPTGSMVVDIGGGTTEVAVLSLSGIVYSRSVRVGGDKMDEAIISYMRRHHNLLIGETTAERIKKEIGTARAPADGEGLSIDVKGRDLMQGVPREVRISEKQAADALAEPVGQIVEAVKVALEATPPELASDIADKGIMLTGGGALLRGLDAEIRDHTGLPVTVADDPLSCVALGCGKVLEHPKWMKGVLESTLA
Protocol Text: Isothermal titration calorimetry of nucleotides and MP265 binding to MreB
Parameters: species or system Caulobacter crescentus
Recorded Conditions: ITC, 25°C, in the presence of 0.5 mM ADP; read-out: Kd
pKd: −log10 of the molar value.

{"columns": ["Smiles Notation", "pKd"],
 "data": [
  ["N=C(N)SCc1ccc(Cl)cc1", 5.89]
]}

----------
System Under Test: ΔCcMreBdh (Caulobacter vibrioides, UniProt A0A0H3C7V4, F102S/V103G)
Construct: added initiator Met (M before I9) (N); made in house; host or cells: E. coli C41(DE3) (printed for the sister construct ΔCcMreBh)
Protocol Text: Isothermal titration calorimetry of nucleotides and MP265 binding to MreB
Set-up: species or system Caulobacter crescentus
Recorded Conditions: ITC, 25°C, ligand titrated into ΔCcMreBdh alone
Reported Metric: ΔH (kcal/mol)

{"columns": ["Molecule", "Reported Metric", "Measured Result"],
 "data": [
  ["Nc1ncnc2c1ncn2[C@@H]1O[C@H](COP(=O)(O)OP(=O)(O)OP(=O)(O)O)[C@@H](O)[C@H]1O [ATP]", "ΔH", -6.0],
  ["Nc1ncnc2c1ncn2[C@@H]1O[C@H](COP(=O)(O)OP(=O)(O)NP(=O)(O)O)[C@@H](O)[C@H]1O [AMPPNP]", "ΔH", -4.4],
  ["Nc1ncnc2c1ncn2[C@@H]1O[C@H](CO[P@](=O)(O)O[P@](=O)(O)O[P@@](=O)(O)S)[C@@H](O)[C@H]1O [ATPγS]", "ΔH", -7.7],
  ["Nc1ncnc2c1ncn2[C@@H]1O[C@H](COP(=O)(O)OP(=O)(O)O)[C@@H](O)[C@H]1O [ADP]", "ΔH", -5.3]
]}

Hello, the source for this data is paper PMC4051119, in case you need it.
